- SYSTEM UNDER TEST: Lysine-specific demethylase 4E (Homo sapiens) (UniProt B2RXH2); note: nearly all actives have a fitted effect of over 50% in size
- PROTOCOL: qHTS Assay for Inhibitors of Human Jumonji Domain Containing 2E (JMJD2E)
- MEASUREMENT PARAMETERS: JMJD2E catalytic domain, FDH-coupled NADH fluorescence; series mostly up to 57.1 µM
- Text: Assay Provider: Structural Genomics Consortium [SGC] Screening Center PI: Austin, C.P. Screening Center: NIH Chemical Genomics Center [NCGC] The fine interplay among methylation states of several lysine residues on the tails of histone proteins is a major determinant of the transcriptional state of the associated DNA coding regions and is commonly referred to as the histone code. […]
Hit rate of the full screen: of about 230,000 compounds, about 3,600 (1.6%) were called active. About 15% were inconclusive and are not listed. Calls come from the whole dose curve; as a rule, active = well fitted inhibition curve with a large enough effect (not every such curve was filed as active); inconclusive = small, poorly fitted or top-dose-only effect, or another doubt; inactive = no such curve, though single readings can be large or run the other way. The sample as a whole holds a higher share of actives than the screen did.
One label from this list, please: true (active), false (inactive)

Fill in: this test's call for `O=[N+]([O-])c1cc(Cl)cc(/C=N/NC(=S)Nc2cc(S(=O)(=O)N3CCOCC3)ccc2Cl)c1O` is ___
true

Fill in: this test's call for `Oc1[nH]c2ccc(Br)cc2c1N=Nc1nn[nH]n1` is ___
false

Fill in: this test's call for `CCc1c(C)[nH]c(=S)c(C#N)c1C` is ___
true

Fill in: this test's call for `COc1ccc(OC)c(Nc2nc(-c3ccc(O)c(O)c3)cs2)c1` is ___
true

Fill in: this test's call for `COc1ccc(-c2csc(Nc3ccc(O)cc3)n2)cc1` is ___
false

Fill in: this test's call for `CCOC(=O)c1c(C)[nH]c(=S)c(C#N)c1-c1ccccc1` is ___
false

###

- SYSTEM UNDER TEST: Lysine-specific demethylase 4E (Homo sapiens); note: nearly all actives have a fitted effect of over 50% in size
- PROTOCOL: qHTS Assay for Inhibitors of Human Jumonji Domain Containing 2E (JMJD2E)
- MEASUREMENT PARAMETERS: JMJD2E catalytic domain, FDH-coupled NADH fluorescence; series mostly up to 57.1 µM
Hit rate of the full screen: of about 230,000 compounds, about 3,600 (1.6%) were called active. Roughly 15% stayed inconclusive and do not appear here. Calls come from the whole dose curve; as a rule, active = well fitted inhibition curve with a large enough effect (not every such curve was filed as active); inconclusive = small, poorly fitted or top-dose-only effect, or another doubt; inactive = no such curve, though single readings can be large or run the other way. The list comes from a sample in which actives are over-represented; it also holds close analogues and randomly drawn compounds.
One label from this list, please: label 1 (active), label 0 (inactive)

Fill in: this test's call for `CN1CCN(Cc2c(O)ccc3c2oc(=O)c2ccccc23)CC1` is ___
label 0

Fill in: this test's call for `CSc1nnnn1-c1c(C)cc(C)cc1C` is ___
label 0

Fill in: this test's call for `O=C(N/N=C/c1ccccc1O)/C(=C/c1ccccc1)CCO` is ___
label 1

Fill in: this test's call for `CCN(CC(=O)NCCc1ccccc1)S(=O)(=O)c1ccccc1` is ___
label 0

Fill in: this test's call for `O=C(CCC(=O)Nc1ccccc1)N/N=C/c1ccccc1F` is ___
label 0

Fill in: this test's call for Cc1cc(C)c(C)c(S(=O)(=O)N[C@@H](C)C(=O)OC(C)C(=O)NC(N)=O)c1C (some centres not stated) is ___
label 0

Fill in: this test's call for `CCOc1ccc(-c2nc(N)ncc2-c2ccccc2OC)c(O)c1` is ___
label 0

Fill in: this test's call for O=C(COC(=O)c1ccc(S(=O)(=O)Nc2ccccc2)cc1)NCC1CCCO1 (configuration not stated) is ___
label 0

Fill in: this test's call for `O=C(CCCCCNC(=O)c1ccccc1)N/N=C/c1ccccc1` is ___
label 0

Fill in: this test's call for `CCN(CC)CCCN=C(N)N` is ___
label 0

Fill in: this test's call for `O=C(c1cc(COc2c(F)cccc2F)on1)N1CCSCC1` is ___
label 0

Fill in: this test's call for `O=c1oc2c(CN3CCCCC3)c(O)ccc2c2c1CCCCC2` is ___
label 1

###

- SYSTEM UNDER TEST: Lysine-specific demethylase 4E (Homo sapiens); note: nearly all actives have a fitted effect of over 50% in size
- PROTOCOL: qHTS Assay for Inhibitors of Human Jumonji Domain Containing 2E (JMJD2E)
- MEASUREMENT PARAMETERS: JMJD2E catalytic domain, FDH-coupled NADH fluorescence; series mostly up to 57.1 µM
The whole screen tested about 230,000 compounds, of which about 3,600 (1.6%) were called active. About 15% were inconclusive and are not listed. Calls come from the whole dose curve; as a rule, active = well fitted inhibition curve with a large enough effect (not every such curve was filed as active); inconclusive = small, poorly fitted or top-dose-only effect, or another doubt; inactive = no such curve, though single readings can be large or run the other way. The entries come from a sample that favours actives as a whole.
One label from this list, please: active, inactive

Fill in: this test's call for `CCNC(=O)c1c(O)c2cccc3c2n(c1=O)CC3` is ___
active

Fill in: this test's call for `CCCCc1nc2ccccc2c(=O)n1NC(=O)c1c(O)c2cccc3c2n(c1=O)CC3` is ___
inactive

Fill in: this test's call for O=C1/C(=C/c2cccs2)SC(=S)N1C1CCS(=O)(=O)C1 (stereo unspecified) is ___
inactive

Fill in: this test's call for `O/N=C1\CC2(Cc3nonc31)OCCO2` is ___
inactive

Fill in: this test's call for `Cc1cc(-c2nnc(CCC(=O)NC(c3ccccc3)c3ccccc3)o2)no1` is ___
inactive

Fill in: this test's call for O=C(NCC(c1cccs1)N1CCOCC1)c1cc(-c2ccccn2)nc2ccccc12 (stereo unspecified) is ___
inactive

###

- SYSTEM UNDER TEST: Lysine-specific demethylase 4E (Homo sapiens); note: nearly all actives have a fitted effect of over 50% in size; note: potency is the fitted concentration of half-maximal effect
- PROTOCOL: qHTS Assay for Inhibitors of Human Jumonji Domain Containing 2E (JMJD2E)
- MEASUREMENT PARAMETERS: JMJD2E catalytic domain, FDH-coupled NADH fluorescence; series mostly up to 57.1 µM
Hit rate of the full screen: of about 230,000 compounds, about 3,600 (1.6%) were called active. Another 15% or so got no clear call; they are omitted. The entries come from a sample that favours actives as a whole.
ENDPOINT LABEL: Potency

Worked cases, Potency given:
[
  {
    "STRUCTURE AS SMILES": "S=c1[nH]nc(Nc2ccccc2)s1",
    "SYSTEM UNDER TEST": "Lysine-specific demethylase 4E (Homo sapiens)",
    "ENDPOINT LABEL": "Potency",
    "OBSERVED MEASUREMENT": "17.8 µM (active)"
  },
  {
    "STRUCTURE AS SMILES": "c1ccc(Nc2n[nH]nc2-c2ccccc2)cc1",
    "SYSTEM UNDER TEST": "Lysine-specific demethylase 4E (Homo sapiens)",
    "ENDPOINT LABEL": "Potency",
    "OBSERVED MEASUREMENT": "inactive"
  },
  {
    "STRUCTURE AS SMILES": "Nc1ccccc1SCc1cc([N+](=O)[O-])cc2c1OCOC2",
    "SYSTEM UNDER TEST": "Lysine-specific demethylase 4E (Homo sapiens)",
    "ENDPOINT LABEL": "Potency",
    "OBSERVED MEASUREMENT": "inactive"
  },
  {
    "STRUCTURE AS SMILES": "O=C(CCS(=O)(=O)c1ccccc1Cl)Nc1ccc(S(=O)(=O)Nc2ncccn2)cc1",
    "SYSTEM UNDER TEST": "Lysine-specific demethylase 4E (Homo sapiens)",
    "ENDPOINT LABEL": "Potency",
    "OBSERVED MEASUREMENT": "inactive"
  }
]

Next up:
Bench note: what Potency did `O=c1cnnc(Nc2ccccc2)[nH]1` show?
inactive

###

- SYSTEM UNDER TEST: Lysine-specific demethylase 4E (Homo sapiens); note: nearly all actives have a fitted effect of over 50% in size
- PROTOCOL: qHTS Assay for Inhibitors of Human Jumonji Domain Containing 2E (JMJD2E)
- MEASUREMENT PARAMETERS: JMJD2E catalytic domain, FDH-coupled NADH fluorescence (FDH is formaldehyde dehydrogenase); series mostly up to 57.1 µM
The campaign covered roughly 230,000 compounds. About 3,600 (1.6%) were called active. Not shown: some 15% with an inconclusive outcome. Calls follow the shape of the dose curve; as a rule, active = well fitted inhibition curve with a large enough effect (not every such curve was filed as active); inconclusive = small, poorly fitted or top-dose-only effect, or another doubt; inactive = no such curve, though single readings can be large or run the other way. The full list was thinned out, with actives kept by preference.
One label from this list, please: true for active, false for inactive

Fill in: this test's call for `CN(C)C(=S)Nc1ccc(Br)cc1Cl` is ___
false

Fill in: this test's call for Cc1ccc(N2C(=O)CC(Sc3ncn[nH]3)C2=O)cc1 (stereo unspecified) is ___
true

Fill in: this test's call for O=C1CC(Sc2ncn[nH]2)C(=O)N1c1ccccc1 (stereo unspecified) is ___
true

Fill in: this test's call for Cc1cccc(N2C(=O)CC(SC(N)=Nc3ccccc3)C2=O)c1 (stereo unspecified) is ___
false

Fill in: this test's call for CCOC(=O)c1ccc(N2C(=O)CC(Sc3nc(O)c(CC)c(=O)[nH]3)C2=O)cc1 (stereo unspecified) is ___
false

Fill in: this test's call for COc1ccc(N2C(=O)CC(Sc3n[nH]c(-c4ccc(C)cc4)n3)C2=O)cc1 (stereo unspecified) is ___
false
